These measurements were taken from PubChem BioAssay (NCI).

- System: NCI-H522 lung
- assay_info: NCI tumour cell line growth inhibition, 48 h
assay_metric: TGI

molecule | result
CC(C)(NC(=O)OCc1ccccc1)C(=O)OC(=O)C(C)(C)NC(=O)OCc1ccccc1 | > 100 µM
Cc1ccc(NC(=O)CCc2n[nH]c(=S)o2)cc1 | > 100 µM
O=C1CC/C(=C/COc2cc(=O)oc3ccccc23)O1 | 4.36 µM
CC(C)(C)OC(=O)NCc1cccc(N=C=S)c1 | 44.1 µM
CC(=O)c1ccc(NC(=O)C(=O)C(C#N)CC(C)(C)C=O)cc1 (configuration not stated) | > 100 µM
COC(=O)c1cc(OC)c(OC)c(OC)c1-c1cc2c(cc1C=O)OCO2 | > 10 µM
CN(CCCCCl)P(=O)(OCc1ccc([N+](=O)[O-])o1)OCC1OC(n2cnc([N+](=O)[O-])c2N)C(O)C1O (configuration not stated) | > 100 µM
O=C(CCCN1CCC(C(O)c2ccc(F)cc2)CC1)c1ccc(F)cc1 (configuration not stated) | 139 µM
CCOC(=O)C1(C#N)CC1 | > 100 µM
CN(C)c1ccc(/C=N/S(=O)(=O)c2ccc(-n3c(-c4ccccc4)nc4c(Br)cc(Br)cc4c3=O)cc2)cc1 | > 97 µM
CC(=O)O[C@H]1CC[C@@]2(C)C(=C/C(=N/OCCN3CCCC3)[C@H]3[C@@H]4CC[C@H](OC(C)=O)[C@@]4(C)CC[C@@H]32)C1 | > 100 µM
C=Cn1c([N+](=O)[O-])cnc1/C=C/c1ccc(C(=O)OCCN2CCOCC2)cc1 | > 100 µM
Cc1cc(S(=O)(=O)Nc2n[nH]c(N)n2)c(Cl)cc1Cl | > 10 µM
Cn1cc(C(=O)c2ccccc2)cc(C(=O)c2ccccc2)c1=O | > 100 µM
COc1cccc(SSc2cccc(OC)c2C(=O)O)c1C(=O)O | > 100 µM
c1ccc(OCc2nnc3n2N=C(c2ccccc2)CS3)cc1 | > 100 µM
O=C1CCCCC12CCC/C2=N\O (configuration not stated) | > 100 µM
COc1cc2c(cc1OC)C(=O)/C(=C/c1cc(C)cc(C)c1)C2 | > 46.8 µM
Cc1nc2cc(Nc3nc(Nc4ccc(F)cc4)nc(N4CCOCC4)n3)ccc2n1Cc1ccccc1 | 18.9 µM
Cc1ccc(C2(c3ccc(F)cc3)OC(=O)c3ccccc32)c(O)c1 (configuration not stated) | 35.9 µM
O=C1C(c2c(O)[nH]c3ccc(Br)cc23)=Nc2ccc(Br)cc21 | > 100 µM
NC1(Cc2ccc(Cl)cc2)CCN(c2ncnc3[nH]ccc23)CC1 | 27.7 µM
